Target: T1, serum resistance-associated protein (SRA) from Trypanosoma brucei rhodesiense, recombinant SRA (SEQ ID NO: … (Trypanosoma brucei rhodesiense, UniProt O96637 31-274))
T1 construct: also called SRA protein
T1 sequence: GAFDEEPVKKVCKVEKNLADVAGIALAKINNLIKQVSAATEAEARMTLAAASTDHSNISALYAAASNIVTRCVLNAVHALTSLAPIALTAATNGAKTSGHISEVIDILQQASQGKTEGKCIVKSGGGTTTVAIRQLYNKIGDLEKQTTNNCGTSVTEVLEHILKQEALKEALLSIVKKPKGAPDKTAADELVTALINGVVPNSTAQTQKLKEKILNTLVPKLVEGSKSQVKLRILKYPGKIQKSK
Assay: SPR, mAb captured, 25C, assoc. pH 7.4, dissoc. pH 4.5
Checkbox rule: t ½ lower than 0.03 h = 1; t ½ not lower than 0.03 h = 0.

# TODO verify t ½ < 0.03 h strictly for this binder: H2aM10200N (antibody, V domains shown, Hybridoma-derived chimeric antibody, human variable domains and mouse constant domains (mouse Fc, prefix H2aM); also called H2M10200N) VH: QVQLVQSGAEVKKPGSSVKVSCKASGGTFSSYAISWVRQAPGQGLEWMGGIIPFFGTATYAQKFQGRVTITTDESTRTVYMELSSLRYEDTAVYYCARWYSGYGGDFDYWGQGTLVTVSS VL: AIQMTQSPSSLSASVGDRVTITCRASQGIRNDLGWFQQKPGKAPKLLIYAASSLQSGVPSRFSGSGSGTDFTLSISSLQPEDFATYYCLQDYSYPRTFGQGTKVEIK 0

// next record H1H10041P (antibody, V domains shown, Fully human antibody with human IgG1 Fc (prefix H1H)) VH: QVQLVQSGAEVRKPGSSMKVSCATSGGNFRSYTINWVRQAPGQGLEWMGGVFPAVGTRIYAQKFQGRVTISTDESTTIAYMELNSLVPEDTAVYYCARSFNSPFDFWDQGTLVTVSS VL: AIQMTQSPSSLSASVGDRVTLTCRASQDIRNDLHWFQQTPGKAPRLLIYSASNLQSGVPSRFSGTGSGTDFTLTFSSLQPEDFATYYCLQDYSYPYTFGQGTKLEIK 0

// next record H1H10027P (antibody, V domains shown, Fully human antibody with human IgG1 Fc (prefix H1H)) VH: EVQLVESGGALVQPGRSLTLSCAASGFTFDDYTMHWVRQTPGKGLEWVSGILWNSDNLVYADSVKGRFTISRDNAKNSLYLQMNSLRVEDTALYYCTKEIDYLTLGGNAFDVWGQGTMVTVSS VL: DIQMTQSPSTLSASVGDRITITCRASQNINYWLAWYQQKPGKAPKLLIYKASSLAGGVPSRFSGSGSGTDFTLTINSLQPDDFATYYCQKYNTYSLNFGGGTKVEIK 0

// next record H2bM10093N (antibody, V domains shown, Chimeric antibody, human variable domains and mouse constant domains; also called H2aM10093N; H2M10093N) VH: EVQLVESGGGLVKPGGSLRLSCVASGFTLSGYSMNWVRQAPGKGLEWVSSISTSSSYIYYADSVQGRFTISRDNAKNSLYLQMNSLRAEDTAVYYCVRKGANWIYFDYWGQGTLVTVSS VL: DIQMTQSPSSVSASVGDRVTITCRASQGISSLLAWFQQKPGKAPNLLIYAASSLQSGVPSRFSGSGSGTDFTLTISSLQPEDFATYYCQQAKSFPFTFGPGTKVDIK 1

// next record H1H10031P (antibody, V domains shown, Fully human antibody with human IgG1 Fc (prefix H1H)) VH: EVQLVESGGNVVRPGGSLRLSCSGSGFAFENYGMSWVRQGPGKGLEWVSNINWNGGSLNYVDSVKGRFTISRDNAKNSLYLQMNSLRAEDTALYYCARVIVYGMDVWGQGTTVTVSS VL: DIQMTQSPSSLSASVGDRVTITCRASQGIRNGLGWFQQKPGKAPKRLIYATSSLQSGVPSRFSGSGSGTEFTLTISSLQPEDFATYYCLQSNSYPWTFGQGTKVEIK 0
